Organism: Rattus norvegicus
Type: functional, Striatum, Membrane
Description: Inhibition constant on radiolabeled [125 I] FIDA2 binding to rat striatal membranes
In this section we review reported Ki values for a set of molecules.
endpoint-label: Ki (µM)

INSERT INTO assay_data (molecule, units_symbol, qual, assay_result) VALUES
  ('C=CCN1CC[C@]23c4c5ccc(O)c4O[C@H]2C(=O)CC[C@@]3(O)[C@H]1C5 [NALOXONE]', 'µM', '>', 10),
  ('COC(=O)[C@@H]1[C@H]2C[C@H]3c4[nH]c5ccccc5c4CCN3C[C@@H]2CC[C@@H]1O [YOHIMBINE]', 'µM', '=', 0.505),
  ('CCCN1CCC[C@@H]2Cc3n[nH]cc3C[C@H]21 [QUINPIROLE]', 'µM', '=', 8),
  ('CN1[C@@H]2CC[C@H]1C[C@@H](OC(=O)C(CO)c1ccccc1)C2 (stereo not given in full) [ATROPINE]', 'µM', '>', 10),
  ('CC(C)(C)[C@@]1(O)CCN2C[C@@H]3c4ccccc4CCc4cccc(c43)[C@H]2C1', 'µM', '=', 0.0004);
